target: Homo sapiens TREK-2 (Homo sapiens, UniProt P57789); construct: TREK-2 amino acids 1–538; test: Excised inside-out patch recording of TREK-2 from Xenopus oocytes
Sequence (P57789 whole entry, the tested form may be a part): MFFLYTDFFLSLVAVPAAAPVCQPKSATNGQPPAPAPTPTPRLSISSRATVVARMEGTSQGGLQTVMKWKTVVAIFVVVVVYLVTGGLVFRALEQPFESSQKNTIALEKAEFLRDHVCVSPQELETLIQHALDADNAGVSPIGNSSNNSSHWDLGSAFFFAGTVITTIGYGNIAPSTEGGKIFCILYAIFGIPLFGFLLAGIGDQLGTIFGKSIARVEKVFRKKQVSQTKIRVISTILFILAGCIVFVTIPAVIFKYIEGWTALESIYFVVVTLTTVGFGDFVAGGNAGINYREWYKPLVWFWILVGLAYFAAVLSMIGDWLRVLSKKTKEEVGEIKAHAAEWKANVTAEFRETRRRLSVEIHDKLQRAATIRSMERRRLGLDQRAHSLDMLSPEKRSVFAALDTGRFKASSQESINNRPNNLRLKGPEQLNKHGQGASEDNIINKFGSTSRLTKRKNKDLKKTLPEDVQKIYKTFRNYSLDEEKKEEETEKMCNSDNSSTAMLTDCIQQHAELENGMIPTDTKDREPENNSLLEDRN
MEASURE_NAME: pIC50
Note on units: pIC50 is unitless, being -log10 of a concentration expressed in mol/L.

Challenge: Recorded pIC50 for C=C(C)[C@@H]1CCC(C)=C[C@H]1c1c(O)cc(CCCCC)cc1O , please?
Response given: 5.89

* * *

molecular target: TRAAKP259L (Homo sapiens, UniProt Q9NYG8, P233L); construct: The transcribed messages encode H. sapiens TRAAK amino acids 1–393; assay: Excised patch recording of TRAAK mutant P259L
MEASURE_NAME: IC50 (nM)
Numeric answer only, unit nM assumed.

Challenge: Request the reported IC50 associated with C=C(C)[C@@H]1CCC(C)=C[C@H]1c1c(O)cc(CCCCC)cc1O [CBD, Cannabidiol]
Response given: 156

* * *

Target: TRAAKG158D (Homo sapiens, UniProt Q9NYG8, G132D)
Construct: The transcribed messages encode H. sapiens TRAAK amino acids 1–393
Sequence (Q9NYG8 1-393 G132D): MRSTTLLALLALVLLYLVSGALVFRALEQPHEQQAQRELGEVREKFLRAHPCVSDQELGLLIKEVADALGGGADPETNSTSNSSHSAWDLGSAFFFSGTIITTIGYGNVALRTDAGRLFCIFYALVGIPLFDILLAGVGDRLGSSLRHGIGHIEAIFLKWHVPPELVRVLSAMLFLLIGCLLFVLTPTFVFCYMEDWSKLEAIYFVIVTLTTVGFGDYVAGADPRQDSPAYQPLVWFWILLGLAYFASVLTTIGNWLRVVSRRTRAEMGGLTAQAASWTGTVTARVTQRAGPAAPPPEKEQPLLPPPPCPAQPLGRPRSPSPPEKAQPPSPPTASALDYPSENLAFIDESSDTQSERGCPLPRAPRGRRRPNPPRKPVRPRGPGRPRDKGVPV
Assay: Excised patch recording of TRAAK mutant G158D
MEASURE_NAME: EC50 (nM)
# unit: nM | format: bare number

Challenge: Which EC50 is listed for C=C(C)[C@@H]1CCC(C)=C[C@H]1c1c(O)cc(CCCCC)cc1O ?
Response given: 1030
